# assay-target: human TAS2R4 (Homo sapiens)
# Construct: expressed in transfected cells; host or cells: HEK293T-Gα16gust44
# Sequence (Q9NYW5 1-299): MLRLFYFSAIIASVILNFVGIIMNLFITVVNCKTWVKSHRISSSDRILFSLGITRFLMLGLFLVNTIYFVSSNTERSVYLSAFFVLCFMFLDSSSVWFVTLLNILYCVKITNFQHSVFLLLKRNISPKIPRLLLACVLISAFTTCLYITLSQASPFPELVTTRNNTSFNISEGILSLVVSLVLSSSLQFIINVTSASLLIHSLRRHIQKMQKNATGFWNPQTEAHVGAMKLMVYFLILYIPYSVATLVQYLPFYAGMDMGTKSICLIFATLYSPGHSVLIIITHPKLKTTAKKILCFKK
# assay-notes: Calcium imaging assay (FLIPR), HEK293T-Gα16gust44 cells transfected with human TAS2R4; further: test concentration or dose not given here
# Type: cell-based
# condition-summary: Time (s) 4
measured-metric: RLU, fluorescence trace (RLU)

smiles | measured-metric | unit-tag | reported
C[C@H](CCC(=O)NCC(=O)O)[C@H]1CC[C@H]2[C@@H]3[C@H](O)C[C@@H]4C[C@H](O)CC[C@]4(C)[C@H]3C[C@H](O)[C@]12C | RLU, fluorescence trace | RLU | -20.6032
C[C@H](CCC(=O)O)[C@H]1CC[C@H]2[C@@H]3CC[C@@H]4C[C@H](O)CC[C@]4(C)[C@H]3C[C@H](O)[C@]12C | RLU, fluorescence trace | RLU | -23.5542
C[C@H](CCC(=O)O)[C@H]1CC[C@H]2[C@@H]3[C@@H](O)C[C@@H]4C[C@H](O)CC[C@]4(C)[C@H]3CC[C@]12C | RLU, fluorescence trace | RLU | 1.8572
